# Assay: Clearance in monkey at 1 mg/kg, iv measured for 24 hrs by LC-MS/MS analysis
# Type: ADME, organism-based, Macaca mulatta
# Experimental parameters: rhesus monkey, in vivo
Assay endpoint: clearance (mL/min/kg)

[[record]]
structure_as_smiles = "C[C@@H](Oc1ccc2[nH]nc(-c3ccc(N4CC5(C4)CN(S(C)(=O)=O)C5)nc3)c2c1)c1c(Cl)cncc1Cl"
measured = 11.1


---

# Assay: Tmax in monkey at 10 mg/kg, po measured for 24 hrs by LC-MS/MS analysis
# Type: ADME, organism-based, Macaca mulatta
# Experimental parameters: rhesus monkey, in vivo
Assay endpoint: Tmax (h)

[[record]]
structure_as_smiles = "C[C@@H](Oc1ccc2[nH]nc(-c3ccc(N4CC5(C4)CN(S(C)(=O)=O)C5)nc3)c2c1)c1c(Cl)cncc1Cl"
assay_endpoint = "Tmax"
measured = 6


---

# Assay: Stability in mouse hepatocytes assessed as half life at 1 uM incubated upto 180 mins by LC-MS/MS analysis
# Format: ADME, cell-based, Hepatocyte
Assay endpoint: half-life at 1 µM

[[record]]
structure_as_smiles = "C[C@@H](Oc1ccc2[nH]nc(-c3ccc(N4CC5(C4)CN(S(C)(=O)=O)C5)nc3)c2c1)c1c(Cl)cncc1Cl"
assay_endpoint = "half-life at 1 µM"
measured = "> 1.67 h"


---

# Assay: Tmax in dog at 10 mg/kg, po measured for 24 hrs by LC-MS/MS analysis
# Type: ADME, organism-based, Canis lupus familiaris
# Experimental parameters: in vivo
Assay endpoint: Tmax (h)

[[record]]
structure_as_smiles = "C[C@@H](Oc1ccc2[nH]nc(-c3ccc(N4CC5(C4)CN(S(C)(=O)=O)C5)nc3)c2c1)c1c(Cl)cncc1Cl"
assay_endpoint = "Tmax"
measured = 6


---

# Assay: Volume of distribution in monkey at 1 mg/kg, iv measured for 24 hrs by LC-MS/MS analysis
# Type: ADME, organism-based, Macaca mulatta
# Experimental parameters: rhesus monkey, in vivo
Assay endpoint: Vd (L/kg)

[[record]]
structure_as_smiles = "C[C@@H](Oc1ccc2[nH]nc(-c3ccc(N4CC5(C4)CN(S(C)(=O)=O)C5)nc3)c2c1)c1c(Cl)cncc1Cl"
value_units = "L/kg"
measured = 0.94


---

# Tested on: Fibroblast growth factor receptor 3 (Homo sapiens, UniProt P22607, V555L)
# Sequence (P22607 23-806 V555L limits assumed): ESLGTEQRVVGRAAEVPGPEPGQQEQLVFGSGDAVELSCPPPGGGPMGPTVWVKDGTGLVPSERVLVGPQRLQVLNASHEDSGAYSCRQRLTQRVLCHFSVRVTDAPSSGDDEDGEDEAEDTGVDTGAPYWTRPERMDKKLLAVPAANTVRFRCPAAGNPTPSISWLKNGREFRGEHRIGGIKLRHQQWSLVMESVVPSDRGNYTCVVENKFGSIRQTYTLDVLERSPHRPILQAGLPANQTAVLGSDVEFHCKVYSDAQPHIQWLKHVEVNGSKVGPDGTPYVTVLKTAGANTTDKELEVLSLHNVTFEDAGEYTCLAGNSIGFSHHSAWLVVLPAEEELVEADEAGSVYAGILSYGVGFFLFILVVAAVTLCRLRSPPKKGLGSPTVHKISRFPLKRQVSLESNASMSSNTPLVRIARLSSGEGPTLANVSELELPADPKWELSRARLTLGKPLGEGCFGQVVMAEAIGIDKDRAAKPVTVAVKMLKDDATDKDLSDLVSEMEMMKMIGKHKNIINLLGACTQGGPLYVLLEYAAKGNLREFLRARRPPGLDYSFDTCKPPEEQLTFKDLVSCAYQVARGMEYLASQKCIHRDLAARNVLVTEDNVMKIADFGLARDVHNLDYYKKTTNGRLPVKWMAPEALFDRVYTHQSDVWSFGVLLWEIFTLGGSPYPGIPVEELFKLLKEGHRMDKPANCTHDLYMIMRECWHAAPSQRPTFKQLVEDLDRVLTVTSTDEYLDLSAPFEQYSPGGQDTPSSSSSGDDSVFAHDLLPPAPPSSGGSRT
# Assay: Inhibition of FGFR3 V555L mutant (unknown origin) by mobility shift assay
pIC50: −log10 of the molar value.
Assay endpoint: pIC50

[[record]]
structure_as_smiles = "C[C@@H](Oc1ccc2[nH]nc(-c3ccc(N4CC5(C4)CN(S(C)(=O)=O)C5)nc3)c2c1)c1c(Cl)cncc1Cl"
measured = 8.82


---

# Assay: Stability in human liver microsomes assessed as half life at 1 uM incubated upto 180 mins by LC-MS/MS analysis
# Format: ADME, Microsome
// reported half-life at 1 µM for each item listed
Assay endpoint: half-life at 1 µM (min)

[[record]]
structure_as_smiles = "C[C@@H](Oc1ccc2[nH]nc(-c3ccc(N4CCN(C(=O)N5CCN(C)CC5)CC4)nc3)c2c1)c1c(Cl)cncc1Cl"
assay_endpoint = "half-life at 1 µM"
value_units = "min"
measured = 3.5

[[record]]
structure_as_smiles = "C[C@@H](Oc1ccc2[nH]nc(-c3ccc(N4CCN(C)CC4)nc3)c2c1)c1c(Cl)cncc1Cl"
assay_endpoint = "half-life at 1 µM"
value_units = "min"
measured = 5

[[record]]
structure_as_smiles = "C[C@@H](Oc1ccc2[nH]nc(-c3ccc(N4CCOCC4)nc3)c2c1)c1c(Cl)cncc1Cl"
assay_endpoint = "half-life at 1 µM"
value_units = "min"
measured = 5.5

[[record]]
structure_as_smiles = "C[C@@H](Oc1ccc2[nH]nc(-c3ccc(N4CC5CC(C4)N5S(C)(=O)=O)nc3)c2c1)c1c(Cl)cncc1Cl"
assay_endpoint = "half-life at 1 µM"
value_units = "min"
measured = 15

[[record]]
structure_as_smiles = "C[C@@H](Oc1ccc2[nH]nc(-c3ccc(N4CCN(S(C)(=O)=O)CC4=O)nc3)c2c1)c1c(Cl)cncc1Cl"
assay_endpoint = "half-life at 1 µM"
value_units = "min"
measured = 3.3

[[record]]
structure_as_smiles = "C[C@@H](Oc1ccc2[nH]nc(-c3ccc(N4CCN(S(C)(=O)=O)CC4)nc3)c2c1)c1c(Cl)cncc1Cl"
assay_endpoint = "half-life at 1 µM"
value_units = "min"
measured = 9.6

[[record]]
structure_as_smiles = "C[C@@H](Oc1ccc2[nH]nc(-c3ccc(N4CCN(C(=O)N(C)C)CC4)nc3)c2c1)c1c(Cl)cncc1Cl"
assay_endpoint = "half-life at 1 µM"
value_units = "min"
measured = 1.1

[[record]]
structure_as_smiles = "C[C@@H](Oc1ccc2[nH]nc(-c3ccc(C4CCN(S(C)(=O)=O)CC4)nc3)c2c1)c1c(Cl)cncc1Cl"
assay_endpoint = "half-life at 1 µM"
value_units = "min"
measured = 15

[[record]]
structure_as_smiles = "CCC(=O)N1CCN(c2ccc(-c3n[nH]c4ccc(O[C@H](C)c5c(Cl)cncc5Cl)cc34)cn2)CC1"
assay_endpoint = "half-life at 1 µM"
value_units = "min"
measured = 4.7

[[record]]
structure_as_smiles = "C[C@@H](Oc1ccc2[nH]nc(-c3ccc(N4CCN(S(C)(=O)=O)C5(CC5)C4)nc3)c2c1)c1c(Cl)cncc1Cl"
assay_endpoint = "half-life at 1 µM"
value_units = "min"
measured = 4.8

[[record]]
structure_as_smiles = "COC(=O)N1CCN(c2ccc(-c3n[nH]c4ccc(O[C@H](C)c5c(Cl)cncc5Cl)cc34)cn2)CC1"
assay_endpoint = "half-life at 1 µM"
value_units = "min"
measured = 8.5

